Tested on: wheat Gibberella zeae
Assay Protocol: microbe, parasite or virus in culture
Format: cell-based
Setup Conditions: Fusarium graminearum, read-out: Fungicidal activity, inhibition, GZ
Parameter Measured: inhibition at 50 µg/mL (%)
# unit: % | format: bare number

Documented inhibition at 50 µg/mL of O=C(N/C(=C\c1ccccc1)C(=O)N1CCC(O)(c2ccc(Br)cc2)CC1)c1ccc([N+](=O)[O-])cc1 [Compound 10] : 17

Documented inhibition at 50 µg/mL of Cc1nnsc1/C=C(\NC(=O)c1ccccc1)C(=O)N1CCC(O)(c2ccc(Br)cc2)CC1 [Compound 27] : 57

Documented inhibition at 50 µg/mL of O=C(NCc1cccc(Br)c1)/C(=C/c1ccccc1)NC(=O)c1ccccc1 [Compound 51] : 43

Documented inhibition at 50 µg/mL of O=C(NCc1ccccc1Br)/C(=C/c1ccccc1)NC(=O)c1ccccc1 [Compound 52] : 29

Documented inhibition at 50 µg/mL of CC(C)(C)OC(=O)N1CCC(C(=O)N/C(=C\c2ccccc2)C(=O)N2CCC(O)(c3ccc(Br)cc3)CC2)CC1 [Compound 3] : 34

Documented inhibition at 50 µg/mL of O=C(OCc1ccc(Br)cc1)/C(=C/c1ccccc1)NC(=O)c1ccccc1 [Compound 61] : 29

Documented inhibition at 50 µg/mL of O=C(N/C(=C\c1ccc(F)cc1)C(=O)N1CCC(O)(c2ccc(Br)cc2)CC1)c1ccccc1 [Compound 17] : 16

Documented inhibition at 50 µg/mL of O=C(NC1CC1)/C(=C/c1ccccc1)NC(=O)c1ccccc1 [Compound 39] : 13

---

System: Rhizoctonia cerealis
Assay Protocol: Fungicidal activity, fungi growth rate method, RC
Type: cell-based
Setup Conditions: Ceratobasidium cereale; 50 μg/mL; read-out: Fungicidal activity, inhibition, RC
Kindly state inhibition at 50 µg/mL for each of the entries shown.
# unit: % | format: bare number

Documented inhibition at 50 µg/mL of O=C(N/C(=C\c1cccs1)C(=O)N1CCC(O)(c2ccc(Br)cc2)CC1)c1ccccc1 : 19

Documented inhibition at 50 µg/mL of O=C(N/C(=C\c1ccccc1)C(=O)N1CCOCC1)c1ccccc1 : 9

Documented inhibition at 50 µg/mL of O=C(N/C(=C\c1ccccc1)C(=O)N1CCC(O)(c2ccc(Br)cc2)CC1)C1CCNCC1 : 23

Documented inhibition at 50 µg/mL of O=C(N/C(=C\c1ccccc1)C(=O)N1CCC(c2nc(CO)cs2)CC1)c1ccccc1 : 16

Documented inhibition at 50 µg/mL of CC(C)(C)OC(=O)N1CCC(c2nc(/C=C(\NC(=O)c3ccccc3)C(=O)NCC(F)F)cs2)CC1 : 38

Documented inhibition at 50 µg/mL of O=C(N/C(=C\c1ccccc1)C(=O)N1CCC(O)(c2ccc(Br)cc2)CC1)c1ccc(Br)cc1 : 23

Documented inhibition at 50 µg/mL of CC(C)(C)OC(=O)N1CCC(c2nc(/C=C(\NC(=O)c3ccccc3)C(=O)N3CCC(O)(c4ccc(Br)cc4)CC3)cs2)CC1 : 10

Documented inhibition at 50 µg/mL of O=C(NCc1cccc(Br)c1)/C(=C/c1ccccc1)NC(=O)c1ccccc1 : 28

Documented inhibition at 50 µg/mL of O=C(NC(Cc1ccccc1)C(=O)N1CCC(O)(c2ccc(Br)cc2)CC1)C1CC1 (stereo not shown) : 18

Documented inhibition at 50 µg/mL of O=C(NCc1ccc(F)cc1)/C(=C/c1ccccc1)NC(=O)c1ccccc1 : 12

Documented inhibition at 50 µg/mL of O=C(N/C(=C\c1ccco1)C(=O)N1CCC(O)(c2ccc(Br)cc2)CC1)c1ccccc1 : 36

Documented inhibition at 50 µg/mL of O=C(N/C(=C\c1ccccc1)C(=O)N1CCC(O)(c2ccc(Br)cc2)CC1)c1ccc([N+](=O)[O-])cc1 : 16

Documented inhibition at 50 µg/mL of O=C(NCc1ccc(Br)cc1)/C(=C/c1ccccc1)NC(=O)C1CC1 : 24

Documented inhibition at 50 µg/mL of O=C(NCc1ccccc1)/C(=C/c1ccccc1)NC(=O)c1ccccc1 : 5

Documented inhibition at 50 µg/mL of O=C(O)/C(=C/c1ccccc1)NC(=O)c1cccs1 : 10

Documented inhibition at 50 µg/mL of CONC(=O)/C(=C/c1csc(C2CCN(C(=O)OC(C)(C)C)CC2)n1)NC(=O)c1ccccc1 : 45
